# Measured target: recombinant 17bHSD4 (M1-N311) (Homo sapiens (Human), UniProt P51659)
# Sequence (P51659 1-311): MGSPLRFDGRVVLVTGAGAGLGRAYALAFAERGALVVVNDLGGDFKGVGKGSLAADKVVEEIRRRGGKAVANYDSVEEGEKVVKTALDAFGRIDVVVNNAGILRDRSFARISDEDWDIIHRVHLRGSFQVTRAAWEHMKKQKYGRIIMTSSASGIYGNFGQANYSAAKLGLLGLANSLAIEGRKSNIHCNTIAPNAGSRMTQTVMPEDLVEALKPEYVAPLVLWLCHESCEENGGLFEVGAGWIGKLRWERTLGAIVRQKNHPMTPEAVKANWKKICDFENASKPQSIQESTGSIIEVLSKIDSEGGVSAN
# Assay explanation: In Vitro 17bHSD4 Enzyme Assay
# Type: biochemical
# Experimental setup: 40 nM 17bHSD4, 0.125 mM NAD, 15 μM Estradiol, 1.5 h; NADH fluorescence; read-out: 17HSD17b4 Enzyme assay IC50
IC50 for assorted compounds
Observation type: IC50

[
  {
    "Compound": "C[C@H]1CN(C(=O)c2noc(-c3cc(F)c(F)c(O)c3F)n2)C[C@H](C)O1 [Example 54]",
    "Observation type": "IC50",
    "Measurement": "> 50 µM"
  },
  {
    "Compound": "C[C@@H]1CN(C(=O)c2noc(-c3cc(F)c(F)c(O)c3F)n2)C[C@H](C)O1 [Example 87]",
    "Observation type": "IC50",
    "Measurement": "> 200 µM"
  },
  {
    "Compound": "O=C(c1noc(-c2cc(F)c(F)c(O)c2F)n1)N1CCSCC1 [Example 40]",
    "Observation type": "IC50",
    "Measurement": "> 50 µM"
  },
  {
    "Compound": "C[C@@H]1CN(C(=O)c2noc(-c3cc(O)c(F)c(F)c3)n2)C[C@H](C)O1 [Example 116]",
    "Observation type": "IC50",
    "Measurement": "> 50 µM"
  },
  {
    "Compound": "C[C@@H]1CN(C(=O)c2noc(-c3c(F)c(O)c(F)c(F)c3I)n2)C[C@H](C)O1 [Example 108]",
    "Observation type": "IC50",
    "Measurement": "> 50 µM"
  },
  {
    "Compound": "C[C@@H]1CN(C(=O)c2cc(-c3cc(F)c(F)c(O)c3F)on2)C[C@H](C)O1 [Example 89]",
    "Observation type": "IC50",
    "Measurement": "> 50 µM"
  },
  {
    "Compound": "O=C(c1noc(-c2cc(C(F)(F)F)[nH]c(=O)c2)n1)N1CCC(c2ccccc2)C1 (stereo not shown) [Example 9]",
    "Observation type": "IC50",
    "Measurement": "> 50 µM"
  },
  {
    "Compound": "CN(C(=O)c1cc(-c2ccc(F)c(O)c2)on1)c1ccnn1C1CCCCC1 [Example 7]",
    "Observation type": "IC50",
    "Measurement": "> 50 µM"
  },
  {
    "Compound": "O=C(c1noc(-c2cc(F)c(F)c(O)c2F)n1)N1CCOC2(CCCC2)C1 [Example 45]",
    "Observation type": "IC50",
    "Measurement": "> 50 µM"
  },
  {
    "Compound": "C[C@@H]1CN(C(=O)c2noc(-c3cc(F)c(F)c(O)c3F)n2)C[C@H](C)N1 [Example 119]",
    "Observation type": "IC50",
    "Measurement": "> 50 µM"
  },
  {
    "Compound": "C[C@@H]1CCN(C(=O)c2noc(-c3cc(F)c(F)c(O)c3F)n2)CCO1 [Example 51]",
    "Observation type": "IC50",
    "Measurement": "> 50 µM"
  },
  {
    "Compound": "C[C@@H]1CN(C(=O)c2nc(-c3cc(F)c(F)c(O)c3F)no2)C[C@H](C)O1 [Example 110]",
    "Observation type": "IC50",
    "Measurement": "> 50 µM"
  },
  {
    "Compound": "O=C(c1noc(-c2cc(F)c(F)c(O)c2F)n1)N1CCO[C@@H]2CCC[C@H]21 [Example 114]",
    "Observation type": "IC50",
    "Measurement": "> 50 µM"
  }
]
